assayed-target: T1, recombinant biotinylated human PAR2 extracellular domain (residues 1-75), N-terminal AviTag, C-terminal Flag … (human, UniProt P55085 26-75, biotin on the AviTag (enzymatic biotinylation))
T1 construct: also called Bio-human-PAR2 ECD; human PAR2 ECD; not shown: N-terminal AviTag (Avidity LLC); C-terminal Flag and poly Histidine tags
T1 sequence (P55085 26-75): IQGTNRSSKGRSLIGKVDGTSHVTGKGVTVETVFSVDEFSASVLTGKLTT
test-name: HTRF competition with Par0067 IgG, scFv
Description: 5 μl/well of the appropriate pH 4.44 nM Par0067 IgG solution was added to all wells of the relevant assay plate (pH 7.4 and pH 6.0). […] For multipoint dose response curves % Specific Binding values were plotted versus test purified antibody concentration (scFv or IgG). IC₅₀ values were determined via a sigmoidal dose response inhibition variable slope curve fit (4 parameter logistic equation) using Graphpad Prism Software.
attribute-measured: Fold IC50 pH 7.4 (Variant v Par0067) (fold)
Answer format: numeric, fold implied, no suffix.

Some binders with known Fold IC50 pH 7.4 (Variant v Par0067) results, for comparison:
binder	Fold IC50 pH 7.4 (Variant v Par0067), fold
PaB670087 scFv (scFv, V domains shown, purified scFv; also called ZZ1ODR-B05) VH: EVQLLESGGGLVQPGGSLRLSCAASGFTFSSYAMNWVRQAPGKGLEWVSTISYHGSHISYADHHKHRFTISRDNSKNTLYLQMNSLRAEDTAVYYCARINNDPMDVWGQGTLVTVSS VL: SIELTQPPSVSVSPGQTASITCSGDNLGKKYVQWYQQKPGQSPVLVIYDDSNRPSGIPERFSGSNSGNTATLTISGTQAMDEADYYCQTWDGNPTTGETNVFGGGTKLTVL	12.4
Par0067 scFv (scFv, V domains shown, purified scFv, parent clone; also called ZZ15D2-D02) VH: EVQLLESGGGLVQPGGSLRLSCAASGFTFSSYAMNWVRQAPGKGLEWVSTISYSGSLISYADSVKGRFTISRDNSKNTLYLQMNSLRAEDTAVYYCARINNDPMDVWGQGTLVTVSS VL: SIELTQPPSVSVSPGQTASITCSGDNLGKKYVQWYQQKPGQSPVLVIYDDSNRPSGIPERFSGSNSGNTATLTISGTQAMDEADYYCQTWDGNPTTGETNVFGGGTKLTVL	1

Kindly review the next binder as well.
Sample PaB670020 scFv (scFv, V domains shown, purified scFv; also called ZZ1IGD-D05) VH: EVQLLESGGGLVQPGGSLRLSCAASGFTFSSYAMNWVRQAPGKGLEWVSTISYSGSLISYADSVKGRFTISRDNSKNTLYLQMNSLRAEDTAVYYCARINHDPMDVWGQGTLVTVSS VL: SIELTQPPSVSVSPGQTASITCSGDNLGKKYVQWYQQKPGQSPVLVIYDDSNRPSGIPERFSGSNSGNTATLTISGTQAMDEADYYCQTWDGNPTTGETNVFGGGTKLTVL — what was its Fold IC50 pH 7.4 (Variant v Par0067)? 1.7
